The measurements presented in this section are drawn from patent US20230303681A1.

# Measured On: T1, human TMEM106B (human, UniProt Q9NUM4 2-274)
# T1 construct: Full-length, on transiently transfected HEK293 cells, or natively expressed on HeLa, U251 and A549 cells; also called huTMEM106B; huTMEM
# Method Summary: FACS HeLa;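 further: flow cytometry of cells incubated with hybridoma supernatant or purified antibody at 10 µg/ml for 1 h on ice, propidium iodide–positive dead cells gated out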
Assay Endpoint: MFI

>>> numeric_result("anti-TMEM106B antibody TM-52 (antibody, V domains shown, mouse IgG from hybridoma) VH: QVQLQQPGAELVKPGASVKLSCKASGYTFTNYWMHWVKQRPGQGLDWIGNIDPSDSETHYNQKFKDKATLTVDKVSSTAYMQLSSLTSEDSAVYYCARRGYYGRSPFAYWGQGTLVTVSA VL: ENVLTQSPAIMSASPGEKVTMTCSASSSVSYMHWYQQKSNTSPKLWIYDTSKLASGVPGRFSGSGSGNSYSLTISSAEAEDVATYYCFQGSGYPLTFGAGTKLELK")
227
>>> numeric_result("anti-TMEM106B antibody TM-4 (antibody, V domains shown) VH: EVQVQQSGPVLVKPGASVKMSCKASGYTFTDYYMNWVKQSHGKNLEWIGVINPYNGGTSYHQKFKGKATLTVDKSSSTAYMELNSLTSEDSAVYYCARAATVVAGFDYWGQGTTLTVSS VL: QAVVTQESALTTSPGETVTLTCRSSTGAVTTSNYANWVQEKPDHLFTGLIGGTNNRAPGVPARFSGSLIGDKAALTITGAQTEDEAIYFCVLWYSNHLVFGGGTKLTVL")
323
>>> numeric_result("anti-TMEM106B antibody TM-13 (antibody, V domains shown) VH: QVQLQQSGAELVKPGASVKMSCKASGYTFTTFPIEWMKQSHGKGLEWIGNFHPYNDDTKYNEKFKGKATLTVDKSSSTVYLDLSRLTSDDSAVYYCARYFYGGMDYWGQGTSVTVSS VL: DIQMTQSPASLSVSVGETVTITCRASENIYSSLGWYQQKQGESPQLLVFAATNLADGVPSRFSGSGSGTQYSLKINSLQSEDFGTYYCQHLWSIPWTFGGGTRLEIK")
1380
>>> numeric_result("anti-TMEM106B antibody TM-18 (antibody, V domains shown) VH: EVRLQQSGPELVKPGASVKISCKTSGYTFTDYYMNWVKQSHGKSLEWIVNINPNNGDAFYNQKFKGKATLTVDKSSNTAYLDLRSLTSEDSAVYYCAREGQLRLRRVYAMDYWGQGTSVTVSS VL: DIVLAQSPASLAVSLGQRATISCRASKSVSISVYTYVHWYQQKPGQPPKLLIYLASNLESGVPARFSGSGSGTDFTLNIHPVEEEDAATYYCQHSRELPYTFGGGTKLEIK")
1920
>>> numeric_result("anti-TMEM106B antibody TM-37 (antibody, V domains shown) VH: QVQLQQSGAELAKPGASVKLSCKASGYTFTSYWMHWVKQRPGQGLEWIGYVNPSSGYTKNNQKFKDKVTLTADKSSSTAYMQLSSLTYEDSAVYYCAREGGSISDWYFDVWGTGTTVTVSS VL: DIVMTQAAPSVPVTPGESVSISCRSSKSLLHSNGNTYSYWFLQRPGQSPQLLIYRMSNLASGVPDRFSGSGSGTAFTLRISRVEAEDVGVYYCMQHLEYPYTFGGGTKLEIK")
254
>>> numeric_result("anti-TMEM106B antibody TM-23 (antibody, V domains shown) VH: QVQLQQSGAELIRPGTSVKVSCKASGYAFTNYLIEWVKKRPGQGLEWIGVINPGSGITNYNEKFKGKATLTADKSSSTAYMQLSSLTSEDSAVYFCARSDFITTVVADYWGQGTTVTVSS VL: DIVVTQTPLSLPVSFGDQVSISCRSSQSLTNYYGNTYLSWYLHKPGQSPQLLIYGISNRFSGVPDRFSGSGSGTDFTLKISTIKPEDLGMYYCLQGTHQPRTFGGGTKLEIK")
308
>>> numeric_result("anti-TMEM106B antibody TM-19 (antibody, V domains shown) VH: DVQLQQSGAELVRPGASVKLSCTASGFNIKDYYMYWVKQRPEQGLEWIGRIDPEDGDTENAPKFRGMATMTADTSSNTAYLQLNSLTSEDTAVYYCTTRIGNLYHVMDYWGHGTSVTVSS VL: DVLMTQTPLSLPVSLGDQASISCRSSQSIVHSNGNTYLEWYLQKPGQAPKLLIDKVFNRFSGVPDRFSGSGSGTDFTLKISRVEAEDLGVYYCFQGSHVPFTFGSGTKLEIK")
2430
